These entries and their values trace back to ChEMBL document CHEMBL3044664.

Listed here: items and their measured MIC.
System: Bacillus cereus
assay.explanation: Antibacterial activity against Bacillus cereus MTCC 430 assessed as growth inhibition by agar streak dilution method
Assay type: functional
Write the number in µg/mL without appending the unit.

>>> result("O=C(CSc1nnc(-c2cc3ccccc3oc2=O)o1)Nc1ccc([N+](=O)[O-])cc1")
100
>>> result("CCOc1ccc2nc(NC(=O)CSc3nnc(-c4cc5ccccc5oc4=O)o3)sc2c1")
25
>>> result("N#Cc1ccc2nc(NC(=O)CSc3nnc(-c4cc5ccccc5oc4=O)o3)sc2c1")
100

For the compound CCOc1ccc(NC(=O)CSc2nnc(-c3cc4ccccc4oc3=O)o2)cc1 , give its measured MIC value. 100

Identify MIC associated with the compound O=C(CSc1nnc(-c2cc3ccccc3oc2=O)o1)Nc1nc2ccc(Cl)cc2s1 6.25

Using known records, supply MIC for CC(=O)Nc1ccc2nc(NC(=O)CSc3nnc(-c4cc5ccccc5oc4=O)o3)sc2c1 100

Indicate its recorded MIC; the compound in question is COc1ccc(NC(=O)CSc2nnc(-c3cc4ccccc4oc3=O)o2)cc1 100

In one line, give reported MIC of the entry O=C(CSc1nnc(-c2cc3ccccc3oc2=O)o1)Nc1nc2ccccc2s1 . 100

Identify the reported MIC for the following entry. O=C(CSc1nnc(-c2cc3ccccc3oc2=O)o1)Nc1ccc(Cl)cc1 25

Note down MIC recorded for CC(=O)Nc1ccc(NC(=O)CSc2nnc(-c3cc4ccccc4oc3=O)o2)cc1 100

* * *

Test system: Bacillus cereus
assay.explanation: Antibacterial activity against Bacillus cereus MTCC 430 assessed as growth inhibition by agar streak dilution method
Format: functional
Measured MIC accompanies every entry in the list below.
Report as a plain number; the unit µg/mL is understood.

As a guide, the following entries are already answered.
>>> result("O=C(CSc1nnc(-c2cc3ccccc3oc2=O)o1)Nc1nc2ccc([N+](=O)[O-])cc2s1")
100
>>> result("O=C(CSc1nnc(-c2cc3ccccc3oc2=O)o1)Nc1ccc(I)cc1")
100
>>> result("Cc1ccc2nc(NC(=O)CSc3nnc(-c4cc5ccccc5oc4=O)o3)sc2c1")
100
>>> result("O=C(CSc1nnc(-c2cc3ccccc3oc2=O)o1)Nc1nc2ccc(F)cc2s1")
12.5
>>> result("COc1ccc2nc(NC(=O)CSc3nnc(-c4cc5ccccc5oc4=O)o3)sc2c1")
50

Query MIC for O=C(CSc1nnc(-c2cc3ccccc3oc2=O)o1)Nc1nc2ccc(Br)cc2s1 3.12

In one line, give reported MIC of the entry O=C(CSc1nnc(-c2cc3ccccc3oc2=O)o1)Nc1ccc(F)cc1 . 50

Give the reported value of MIC for this record: O=C(CSc1nnc(-c2cc3ccccc3oc2=O)o1)Nc1ccccc1 100

Note down MIC recorded for O=C(O)c1cn(C2CC2)c2cc(N3CCNCC3)c(F)cc2c1=O 0.39

* * *

Readings of MIC for the listed compounds
Test system: Staphylococcus aureus
assay.explanation: Antibacterial activity against Staphylococcus aureus MTCC 96 assessed as growth inhibition by agar streak dilution method
Assay type: functional
# output: bare number, implied unit µg/mL

In the examples that follow, each entry is paired with its recorded MIC.
>>> result("Cc1ccc2nc(NC(=O)CSc3nnc(-c4cc5ccccc5oc4=O)o3)sc2c1")
100
>>> result("COc1ccc2nc(NC(=O)CSc3nnc(-c4cc5ccccc5oc4=O)o3)sc2c1")
25
>>> result("O=C(CSc1nnc(-c2cc3ccccc3oc2=O)o1)Nc1nc2ccc(I)cc2s1")
100

Let me know recorded MIC for CC(=O)Nc1ccc2nc(NC(=O)CSc3nnc(-c4cc5ccccc5oc4=O)o3)sc2c1 , thanks. 50

Please give the documented MIC of CC(=O)Nc1ccc(NC(=O)CSc2nnc(-c3cc4ccccc4oc3=O)o2)cc1 50

// Input: CCOc1ccc(NC(=O)CSc2nnc(-c3cc4ccccc4oc3=O)o2)cc1 . Output its MIC only. 25

Name the recorded MIC of the compound listed here: COc1ccc(NC(=O)CSc2nnc(-c3cc4ccccc4oc3=O)o2)cc1 6.25

Hello, please tell me recorded MIC for this one: O=C(CSc1nnc(-c2cc3ccccc3oc2=O)o1)Nc1ccc([N+](=O)[O-])cc1 100

Given the compound O=C(CSc1nnc(-c2cc3ccccc3oc2=O)o1)Nc1ccc(I)cc1 , write its reported MIC. 100

Provide MIC value for the following compound: O=C(CSc1nnc(-c2cc3ccccc3oc2=O)o1)Nc1nc2ccc(F)cc2s1 12.5

Hello, please tell me recorded MIC for this one: N#Cc1ccc(NC(=O)CSc2nnc(-c3cc4ccccc4oc3=O)o2)cc1 6.25

Assign MIC to the following record: CCOc1ccc2nc(NC(=O)CSc3nnc(-c4cc5ccccc5oc4=O)o3)sc2c1 12.5

Fill in reported MIC for this entry: O=C(CSc1nnc(-c2cc3ccccc3oc2=O)o1)Nc1nc2ccccc2s1 100

Supply reported MIC belonging to this compound: O=C(CSc1nnc(-c2cc3ccccc3oc2=O)o1)Nc1ccc(Br)cc1 50

Return value of MIC for input O=C(CSc1nnc(-c2cc3ccccc3oc2=O)o1)Nc1nc2ccc(Cl)cc2s1 , no commentary. 50

Provide only the value of recorded MIC for O=C(O)c1cn(C2CC2)c2cc(N3CCNCC3)c(F)cc2c1=O 1.56

Quick one: give measured MIC for N#Cc1ccc2nc(NC(=O)CSc3nnc(-c4cc5ccccc5oc4=O)o3)sc2c1 25

For the compound Cc1ccc(NC(=O)CSc2nnc(-c3cc4ccccc4oc3=O)o2)cc1 , give its reported MIC. 100

For the compound O=C(CSc1nnc(-c2cc3ccccc3oc2=O)o1)Nc1ccc(F)cc1 , report MIC. 12.5

Give the reported MIC for this compound. O=C(CSc1nnc(-c2cc3ccccc3oc2=O)o1)Nc1nc2ccc([N+](=O)[O-])cc2s1 50

Supply MIC value. Item: O=C(CSc1nnc(-c2cc3ccccc3oc2=O)o1)Nc1ccc(Cl)cc1 50

Output MIC of O=C(CSc1nnc(-c2cc3ccccc3oc2=O)o1)Nc1nc2ccc(Br)cc2s1 25

* * *

Tested on: Shigella flexneri
assay.explanation: Antibacterial activity against Shigella flexneri MTCC 1457 assessed as growth inhibition by agar streak dilution method
Type: functional
Listed here: items and their measured MIC.
Output spec: scalar in µg/mL, unitless text.

>>> result("O=C(CSc1nnc(-c2cc3ccccc3oc2=O)o1)Nc1ccc(F)cc1")
50
>>> result("O=C(CSc1nnc(-c2cc3ccccc3oc2=O)o1)Nc1nc2ccc(F)cc2s1")
25
>>> result("COc1ccc(NC(=O)CSc2nnc(-c3cc4ccccc4oc3=O)o2)cc1")
100
>>> result("O=C(CSc1nnc(-c2cc3ccccc3oc2=O)o1)Nc1ccc(I)cc1")
100
>>> result("O=C(CSc1nnc(-c2cc3ccccc3oc2=O)o1)Nc1nc2ccc(I)cc2s1")
100
>>> result("O=C(CSc1nnc(-c2cc3ccccc3oc2=O)o1)Nc1ccc(Cl)cc1")
50

Using the record for CCOc1ccc2nc(NC(=O)CSc3nnc(-c4cc5ccccc5oc4=O)o3)sc2c1 , state its measured MIC. 100

* * *

Test system: Candida albicans
assay.explanation: Antifungal activity against Candida albicans MTCC 183 assessed as growth inhibition by agar streak dilution method
Format: functional
Listed below: log10 MIC values for each entry.
A value of 2 here means MIC of 100 in µg/mL, since values are log10.

See these solved cases before continuing.
>>> result("O=C(CSc1nnc(-c2cc3ccccc3oc2=O)o1)Nc1ccc(I)cc1")
2.00
>>> result("O=C(CSc1nnc(-c2cc3ccccc3oc2=O)o1)Nc1ccc(Br)cc1")
1.70
>>> result("O=C(CSc1nnc(-c2cc3ccccc3oc2=O)o1)Nc1nc2ccc(Br)cc2s1")
1.70
>>> result("O=C(CSc1nnc(-c2cc3ccccc3oc2=O)o1)Nc1ccc(Cl)cc1")
1.70
>>> result("N#Cc1ccc2nc(NC(=O)CSc3nnc(-c4cc5ccccc5oc4=O)o3)sc2c1")
1.70
>>> result("O=C(CSc1nnc(-c2cc3ccccc3oc2=O)o1)Nc1nc2ccc(F)cc2s1")
1.70
>>> result("O=C(CSc1nnc(-c2cc3ccccc3oc2=O)o1)Nc1ccc([N+](=O)[O-])cc1")
1.10
>>> result("CCOc1ccc2nc(NC(=O)CSc3nnc(-c4cc5ccccc5oc4=O)o3)sc2c1")
2.00
>>> result("O=C(CSc1nnc(-c2cc3ccccc3oc2=O)o1)Nc1ccccc1")
2.00
>>> result("CCOc1ccc(NC(=O)CSc2nnc(-c3cc4ccccc4oc3=O)o2)cc1")
1.70

Given the molecule CC(=O)Nc1ccc(NC(=O)CSc2nnc(-c3cc4ccccc4oc3=O)o2)cc1 , write its reported log10 MIC. 2.00

Given COc1ccc(NC(=O)CSc2nnc(-c3cc4ccccc4oc3=O)o2)cc1 , respond with its log10 MIC. 2.00

For the molecule O=C(CSc1nnc(-c2cc3ccccc3oc2=O)o1)Nc1nc2ccc(Cl)cc2s1 , report log10 MIC. 2.00

Entry CC(=O)N1CCN(c2ccc(OCC3COC(Cn4ccnc4)(c4ccc(Cl)cc4Cl)O3)cc2)CC1 (stereo not drawn) needs its log10 MIC filled in; supply it. 0.19

Dear colleague, please send me the reported log10 MIC for COc1ccc2nc(NC(=O)CSc3nnc(-c4cc5ccccc5oc4=O)o3)sc2c1 when you can. 1.70
